Target: T1, human TL1A extracellular domain with N-terminal HIS and FLAG tag (human) (UniProt O95150)
T1 sequence: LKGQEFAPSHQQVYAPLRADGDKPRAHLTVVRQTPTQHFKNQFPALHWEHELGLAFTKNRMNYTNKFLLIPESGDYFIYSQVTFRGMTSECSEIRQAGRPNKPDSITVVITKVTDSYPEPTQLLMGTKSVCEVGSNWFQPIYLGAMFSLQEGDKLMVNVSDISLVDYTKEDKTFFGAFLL
Assay: cell-based or functional assay
OUTCOME MEASURE: Antibody IC50, TL1A induced caspase potency assay in TF-1 cells
Write your answer as a measured quantity: the number, then the unit.

Record 320-201 (antibody, human IgG1, name in Kabat numbering, V domains shown, human IgG1, lambda) VH: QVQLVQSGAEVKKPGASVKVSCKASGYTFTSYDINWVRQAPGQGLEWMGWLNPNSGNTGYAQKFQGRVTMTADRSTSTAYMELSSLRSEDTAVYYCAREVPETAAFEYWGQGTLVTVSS VL: QSVLTQPPSVSGAPGQRVTISCTASSSDIGAGLGVHWYQQLPGTAPKLLIEGYYNRPSGVPDRFSGSKSGTSASLTITGLLPEDEGDYYCQSYDGTLSALFGGGTKLTVLG , field Antibody IC50, TL1A induced caspase potency assay in TF-1 cells: 0.005 µg/mL

Record 320-185 (antibody, human IgG1, name in Kabat numbering, V domains shown, human IgG1, lambda) VH: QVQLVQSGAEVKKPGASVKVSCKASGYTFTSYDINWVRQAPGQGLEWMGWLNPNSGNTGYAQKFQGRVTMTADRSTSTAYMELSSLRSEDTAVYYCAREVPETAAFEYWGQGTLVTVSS VL: QSVLTQPPSVSGAPGQRVTISCTSSSSDIGAGLGVHWYQQLPGTAPKLLIEGYYNRPSGVPDRFSGSKSGTSASLTITGLSPEDEGDYYCQSYDGTLSALFGGGTKLTVLG , field Antibody IC50, TL1A induced caspase potency assay in TF-1 cells: 0.02 µg/mL

Record 320-198 (antibody, human IgG1, name in Kabat numbering, V domains shown, human IgG1, lambda) VH: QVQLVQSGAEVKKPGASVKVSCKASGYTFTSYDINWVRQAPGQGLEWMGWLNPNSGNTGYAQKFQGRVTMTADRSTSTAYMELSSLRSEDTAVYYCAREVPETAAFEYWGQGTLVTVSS VL: QSVLTQPPSVSGAPGQRVTISCLSSSSDIGAGLGVHWYQQLPGTAPKLLIEGYYNRPSGVPDRFSGSKSGTSASLTITGLLPEDEGDYYCQSYDGTLSALFGGGTKLTVLG , field Antibody IC50, TL1A induced caspase potency assay in TF-1 cells: 0.01 µg/mL
